Biological target: human growth hormone secretagogue receptor (hGHS-R1a) (Homo sapiens)
Construct: purchased PerkinElmer BioSignal #RBHGHSM, lot#1887; host or cells: HEK-293, stably transfected (membranes)
Assay: Competitive radioligand binding assay (ghrelin receptor), [125I]-ghrelin displacement on GHS-R/HEK 293 membranes
Settings: binding activity at the human ghrelin receptor, [125I]-ghrelin competition, GHS-R/HEK 293 membranes; read-out: Ki
Property: Ki; scope: individual compounds

Below are worked cases with known answers.
CC[C@H](C)[C@@H]1NCCOc2ccccc2CCCNC(=O)[C@@H](Cc2cccc3ccccc23)NC(=O)[C@@H](C)N(C)C1=O
0.1 to 10 nM
CC(C)C[C@@H]1NCCOc2ccccc2CCCNC(=O)[C@H](Cc2ccccc2)NC(=O)C(C)(C)NC1=O
1000 to 10000 nM
CC[C@H](C)[C@@H]1NCCOc2ccccc2CCCNC(=O)[C@@H](Cc2ccc(F)cc2)NC(=O)[C@@H](C)N(C)C1=O
0.1 to 10 nM
O=C1NC2(CCCC2)C(=O)N[C@@H](Cc2ccccc2)C(=O)NC/C=C/c2ccccc2OCCN[C@H]1Cc1cccnc1
> 1000 nM
CCCC[C@H]1NC(=O)CN(C)C(=O)[C@H](CCC)NCCOc2ccccc2CCCNC1=O
100 to 1000 nM
CN1CC(=O)N[C@H](Cc2ccccc2)C(=O)NCCCc2ccccc2OCCN[C@@H](CCC(=O)O)C1=O
> 10000 nM

For the compound shown here, "CCC[C@@H]1NCCOc2ccccc2CCCNC(=O)CNC(=O)CN(C)C1=O" , give the reported Ki.
> 10000 nM

* * *

Property: pKi; scope: individual compounds
Target: human growth hormone secretagogue receptor (hGHS-R1a) (Homo sapiens, UniProt Q92847)
Construct: purchased PerkinElmer BioSignal #RBHGHSM, lot#1887; host or cells: HEK-293, stably transfected (membranes)
Assay: Competitive radioligand binding assay (ghrelin receptor), [125I]-ghrelin displacement on GHS-R/HEK 293 membranes
Conditions: binding activity at the human ghrelin receptor, [125I]-ghrelin displacement; read-out: Ki
pKi: −log10 of the molar value.

Below are worked cases with known answers.
COc1ccccc1C[C@@H]1NCCOc2ccccc2/C=C/CNC(=O)[C@H](Cc2cccc(Cl)c2)NC(=O)C2(CCCC2)NC1=O
6.00 to 7.00
CC1C(=O)NC(Cc2ccc(C(F)(F)F)cc2)C(=O)NCCCc2ccccc2OCCNC(C2CC2)C(=O)N1C (stereo not drawn)
8.00 to 10.00

Consider now this further compound.
Form: Entry = "C[C@@H]1C(=O)N[C@H](Cc2cc(F)cc(F)c2)C(=O)NCCCc2ccccc2OCCN[C@@H](C2CC2)C(=O)N1C" | System = human growth hormone secretagogue receptor (hGHS-R1a) (Homo sapiens, UniProt Q92847) | pKi = ____
7.00 to 8.00

* * *

Target: motilin receptor (Homo sapiens)
Sequence (O43193 whole entry): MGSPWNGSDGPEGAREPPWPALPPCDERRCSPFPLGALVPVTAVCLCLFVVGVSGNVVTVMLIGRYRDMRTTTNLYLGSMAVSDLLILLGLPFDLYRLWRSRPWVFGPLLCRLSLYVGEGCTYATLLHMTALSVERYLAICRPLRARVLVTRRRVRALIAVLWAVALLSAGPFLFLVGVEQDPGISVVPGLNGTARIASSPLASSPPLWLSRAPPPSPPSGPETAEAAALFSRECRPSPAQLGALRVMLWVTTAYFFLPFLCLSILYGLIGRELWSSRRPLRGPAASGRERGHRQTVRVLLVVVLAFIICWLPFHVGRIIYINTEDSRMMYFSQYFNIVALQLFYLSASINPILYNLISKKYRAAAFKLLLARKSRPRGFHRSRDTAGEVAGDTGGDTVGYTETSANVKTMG
Experiment: Selectivity for the ghrelin receptor versus the motilin receptor
Format: binding
Property: Selectivity; scope: individual molecules

Below are worked cases with known answers.
CCC(C)C1NCCOc2ccccc2CCCNC(=O)C(Cc2cccs2)NC(=O)C(C)N(C)C1=O (stereo not shown) [compound 34]
>1000/1
CCCC1NCCOc2ccccc2CCCNC(=O)C(Cc2ccc(O)cc2)NC(=O)CN(C)C1=O (stereo not shown) [compound 7]
>100/1
CC[C@H](C)[C@@H]1NCCOc2ccccc2CCCNC(=O)[C@@H](Cc2cccc(Cl)c2)NC(=O)[C@@H](C)N(C)C1=O [compound 24]
3039/1
CC(C)C1NCCOc2ccccc2C=CCNC(=O)C(Cc2ccccc2)NC(=O)C(C)N(C)C1=O (stereo not shown) [compound 19]
>1700/1
CC(C)CC1NCCOc2ccccc2C=CCNC(=O)C(Cc2cccc(Cl)c2)NC(=O)C2(CCCC2)NC1=O (stereo not shown) [compound 21]
1078/1

For the molecule shown here, CCCCC1NCCOc2ccccc2CCCNC(=O)C(Cc2ccccc2)NC(=O)CN(C)C1=O (stereo not shown) [Compound 1] , give the reported Selectivity.
142/1

For the molecule shown here, CCCC1NCCOc2ccccc2C=CCNC(=O)C(Cc2ccccc2)NC(=O)C(C)N(C)C1=O (stereo not shown) [compound 39] , give the reported Selectivity.
3400/1

* * *

Target: human growth hormone secretagogue receptor (hGHS-R1a) (Homo sapiens)
Construct: purchased PerkinElmer BioSignal #RBHGHSM, lot#1887; host or cells: HEK-293, stably transfected (membranes)
Test: Competitive radioligand binding assay (ghrelin receptor), [125I]-ghrelin displacement on GHS-R/HEK 293 membranes
Details: binding activity at the human ghrelin receptor, [125I]-ghrelin competition, GHS-R/HEK 293 membranes; read-out: Ki
pKi: −log10 of the molar value.
RECORDED_ENDPOINT: pKi

Below are worked cases with known answers.
CCC[C@@H]1NCCOc2ccccc2CCCNC(=O)[C@@H](Cc2ccccc2)NC(=O)C2(CCCC2)NC1=O
6.00 to 7.00
CCCC1NCc2csc(n2)CNC(=O)C(Cc2ccccc2)NC(=O)CN(C)C1=O (stereo not drawn)
< 5.00

Consider now this further compound.
Form: Entry = "O=C(O)CC[C@@H]1NCCOc2ccccc2CCCNC(=O)[C@H](Cc2ccccc2)NC(=O)C2(CCCC2)NC1=O" | System = human growth hormone secretagogue receptor (hGHS-R1a) (Homo sapiens) | pKi = ____
< 5.00

* * *

Target: human growth hormone secretagogue receptor (hGHS-R1a) (Homo sapiens)
Construct: purchased PerkinElmer BioSignal #RBHGHSM, lot#1887; host or cells: HEK-293, stably transfected (membranes)
Test: Competitive radioligand binding assay (ghrelin receptor), [125I]-ghrelin displacement on GHS-R/HEK 293 membranes
Settings: binding activity, standard method; TFA salts unless otherwise noted; read-out: Ki
pKi: −log10 of the molar value.
Property: pKi; scope: individual molecules

CC(C)C[C@@H]1NCCOc2ccccc2C=CCNC(=O)[C@H](Cc2ccc(Cl)cc2)NC(=O)C2(CCCC2)NC1=O (stereo in doubt) [compound 153]
7.00 to 8.00
CC1C(=O)NC(Cc2ccc(F)cc2)C(=O)NCC2CC2c2ccccc2OCCNC(C2CC2)C(=O)N1C (single isomer, unassigned) [389a]
7.00 to 8.00
CC1C(=O)NC(Cc2ccc(C(F)(F)F)cc2)C(=O)NCCCc2ccccc2OCCNC(C2CC2)C(=O)N1C (stereo not shown) [compound 322]
8.00 to 10.00

For the molecule shown here, CC(C)CC1NCCOc2ccccc2C=CCNC(=O)C(Cc2cccc(Cl)c2)NC(=O)C2(CCCC2)NC1=O (stereo not shown) [compound 21] , give the reported pKi.
8.00 to 10.00

* * *

Target: human ghrelin receptor (hGHS-R1a) (Homo sapiens, UniProt Q92847)
Sequence (Q92847 whole entry): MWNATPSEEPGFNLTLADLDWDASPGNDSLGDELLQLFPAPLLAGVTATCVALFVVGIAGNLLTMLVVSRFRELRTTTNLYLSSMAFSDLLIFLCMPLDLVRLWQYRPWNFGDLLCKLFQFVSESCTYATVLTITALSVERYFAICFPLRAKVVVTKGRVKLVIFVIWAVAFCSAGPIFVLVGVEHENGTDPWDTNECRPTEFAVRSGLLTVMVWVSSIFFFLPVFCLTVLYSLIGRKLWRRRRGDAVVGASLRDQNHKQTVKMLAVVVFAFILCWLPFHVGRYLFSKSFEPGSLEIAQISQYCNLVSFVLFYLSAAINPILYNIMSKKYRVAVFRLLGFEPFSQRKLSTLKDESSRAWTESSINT
Assay: Aequorin functional assay (ghrelin receptor), CHO-K1 cells co-expressing Gα16 and aequorin
Format: cell-based
Details: functional (agonist) activity, standard method; TFA salts unless otherwise noted
Property: EC50; scope: individual compounds

CC(C)[C@@H]1NCCOc2ccccc2CCCNC(=O)[C@@H](Cc2ccccc2)NC(=O)CN(C)C1=O
100 to 1000 nM

Form: Entry = CC(C)C[C@@H]1NCCOc2ccccc2C=CCNC(=O)[C@H](Cc2ccc(Cl)cc2)NC(=O)C2(CCCC2)NC1=O (stereo in doubt) | System = human ghrelin receptor (hGHS-R1a) (Homo sapiens, UniProt Q92847) | EC50 = ____
1 to 100 nM

Form: Entry = CC1C(=O)NC(Cc2ccc(F)cc2)C(=O)NCCCc2ncccc2OCCNC(C2CC2)C(=O)N1C (single isomer, unassigned) [306a] | System = human ghrelin receptor (hGHS-R1a) (Homo sapiens, UniProt Q92847) | EC50 = ____
1 to 100 nM

Form: Entry = CCC(C)C1NCc2ccccc2CCCCNC(=O)C(Cc2ccccc2)NC(=O)C(C)N(C)C1=O (single isomer, unassigned) [194a] | System = human ghrelin receptor (hGHS-R1a) (Homo sapiens, UniProt Q92847) | EC50 = ____
100 to 1000 nM

Form: Entry = CC1C(=O)NC(Cc2ccc(Cl)cc2Cl)C(=O)NCCCc2ccccc2OCCNC(C2CC2)C(=O)N1C (centres unmarked) | System = human ghrelin receptor (hGHS-R1a) (Homo sapiens, UniProt Q92847) | EC50 = ____
1 to 100 nM

* * *

Target: human growth hormone secretagogue receptor (hGHS-R1a) (Homo sapiens)
Construct: purchased PerkinElmer BioSignal #RBHGHSM, lot#1887; host or cells: HEK-293, stably transfected (membranes)
Test: Competitive radioligand binding assay (ghrelin receptor), [125I]-ghrelin displacement on GHS-R/HEK 293 membranes
Settings: binding activity at the human ghrelin receptor, [125I]-ghrelin competition, GHS-R/HEK 293 membranes; read-out: Ki
pKi: −log10 of the molar value.
RECORDED_ENDPOINT: pKi

CC(C)C[C@@H]1NCCOc2ccccc2C=CCNC(=O)[C@H](CCc2ccccc2)NC(=O)C2(CCCC2)NC1=O (stereo in doubt) [compound 155]
< 6.30
C[C@@H]1C(=O)N[C@H](Cc2ccccc2)C(=O)NCCCc2ccccc2OCCN[C@@H]([C@@H](C)O)C(=O)N1C [compound 119]
6.00 to 7.00
CCC[C@@H]1NCCOc2ccccc2CCCNC(=O)[C@@H](Cc2ccccc2)NC(=O)[C@H](CCCCN)NC1=O [compound 68]
5.00 to 6.00
CC(C)C[C@@H]1NCCOc2ccccc2CCCNC(=O)[C@H](Cc2ccccc2)NC(=O)[C@@H](C)NC1=O [compound 94]
5.00 to 6.00
CC(C)C1NCCOc2ccccc2C=CCNC(=O)C(Cc2ccccc2)NC(=O)C2(CCSCC2)NC1=O (stereo in doubt) [compound 143]
6.00 to 7.00

For the compound shown here, CCCC1NCCOCCNC(=O)C(Cc2ccccc2)NC(=O)CN(C)C1=O (stereo not shown) [compound 81] , give the reported pKi.
< 5.00

For the compound shown here, CN1CC(=O)N[C@H](Cc2ccccc2)C(=O)NCCCc2ccccc2OCCN[C@@H](CCCCN)C1=O [compound 74] , give the reported pKi.
5.00 to 6.00
